- Run Description: method code SF-AS, from DOI: 10.1016/0223-5234(89)90112-8
- Particulars: pH 7.4

Compound: C#CCOC1(c2ccccc2)CN(C)CCO1 (centres undefined)
logD: 1.76
--
Compound: CC1CN(C)CC(O)(c2ccccc2)O1 (centres undefined)
logD: 1.48
--
Compound: CN1CCOC(O)(c2ccccc2)C1 (centres undefined)
logD: 1.3
--
Compound: CCCOC1(c2ccccc2)CN(C)CC(C)O1 (centres undefined)
logD: 1.96
